Just for reference, the EternaBench riboswitch data is where these values come from.

System: MS2 coat protein
procedure details: apparent Kd, MS2 coat protein; higher = weaker binding; RNA-MaP array; FMN 200 µM where present
applied conditions: ligand present: flavin mononucleotide; designed as: OFF switch for flavin mononucleotide
quantity: apparent Kd (nM)
Just the number in nM, nothing appended.

Observe how each entry below is paired with its result.
INSERT INTO results (residue_string, data_value) VALUES
  ('CCACCCUGAGGAUAUCCACCCUCAUACAUGAGGAUCACCCAUGUUCAUCCCUGAGUACCCGGAGAAGGCAGAUUCC', 50.6),
  ('UUUUAGUGAGGAUAUACAUUUUUUUAAUUAUUUAUAAUAUUACAUGAGGAUCACCCAUGUAGAAGGCACAUUUU', 22.4),
  ('GACGCUAAAGGAUAUACAUGAGGAUCACCCAUGUUGAGGAAGGUUAGAUGAGGAGUAAGUAGAAGGUUAGGCGA', 35.6),
  ('UAAGUCGGAAGAUAAUAAUGAAUACAUGAGGAUCACCCAUGUAAGGAUAUGCAGUGGAAUACACUGCAGAAGGUACAUACCGAC', 21.4);

Then this sequence:
Task: Recorded apparent Kd for `CGGUACUGAGGAUAUACAUGAGGAUCACCCAUGUGUUCUAGCUAGCGUACUGGCAUUUGUAGAAGGCGGUGCUG` , please?
Result: 56.4

---

Tested on: MS2 coat protein
procedure details: apparent Kd, MS2 coat protein; higher = weaker binding; RNA-MaP array
applied conditions: ligand present: flavin mononucleotide; designed as: OFF switch for flavin mononucleotide
quantity: apparent Kd (nM)
Just the number in nM, nothing appended.

Observe how each entry below is paired with its result.
INSERT INTO assay_data (residue_string, unit_abbreviation, data_value) VALUES
  ('AACAAAAGGAAGAAGGCAGUUAAACAUGAGGAUCACCCAUGUGGGACGCGGGAAAUCAACGAGACUGAGGAUAUUCAUUAAGAA', 'nM', 20.9),
  ('GAAAAUACAUGAGGAUCACCCAUGUGGUGGCGUCAGAUUGGUUAGGAUAUCUUGGCGGGAUACUGAGAGAAGGAACUUUGAAGG', 'nM', 136);

Then this sequence:
Task: Recorded apparent Kd for `UACAAGUACUAGAAGGAUCGAACCGAAGGUGUGAUAGGAUAUAGAGACAUGAGGAUCACCCAUGUAGGAGUGCAGUCAUACAUU` , please?
Result: 23.4

---

Tested on: MS2 coat protein
procedure details: apparent Kd, MS2 coat protein; higher = weaker binding; RNA-MaP array; FMN 200 µM where present
applied conditions: designed as: ON switch for flavin mononucleotide; no ligand
Label rule, in plain words: apparent Kd of 70 nM and up is Condition met, under 70 nM is Condition not met.

The examples below pair each entry with its known result.
INSERT INTO measurements (residue_string, group_label) VALUES
  ('CAGCGCUGUUGAGAGGAUAUGCGGUGAUGGACAUGAGGAUCACCCAUGUUAGCGACAGCAUUACGGCAGAAGGCUUCACAGCUGC', 'Condition not met'),
  ('UUUAUAUUCAGAGGAUAUUAAUGUAGUAUAACAUAAGAAGGCUGUUUGUUUUGUAAAGUAAUUCUACAUGAGGAUCACCCAUGU', 'Condition not met'),
  ('GCGCAUGUCACAGGAUAUCCCAUAGUGUACAUGAGGAUCACCCAUGUACUGCAAUGCAGACACAAGGAGAAGGGUGAGACUCGU', 'Condition met'),
  ('GCACAUGGCAUAGGAUAUAGAACUAUACUUUAUAUAGGUAGUUACACUUAACUAGAAGGAUGAUACAUGAGGAUCACCCAUGUA', 'Condition not met'),
  ('AGAUAACACCAGAAGGACAUGAGGAUCACCCAUGUAGGAUAUGGGCAUCACUCGAGAAAGAUACGACCAAAGGGACACGCGGUC', 'Condition met');

Task: Has `CGUAGGAUCCAGAAGGCAUGAAACAUGAGGAUCACCCAUGUAAAAGACAUGAGGAUAUGGAUCCUACGAAAAGUGCGAAAGCAC` a recorded apparent Kd greater than or equal to 70 nM?
Result: Condition not met

Task: Has `AGUGUCAUCGAGAAGGCCUCAUGAACAUGAGGAUCACCCAUGUAAAAUGGGAGGAUAUCGAUGAUACAGCUACGUUUCGUAGCA` a recorded apparent Kd greater than or equal to 70 nM?
Result: Condition met

Task: Has `UUGGACGUCGUAGGAUAUGUAGGAUAUUCCUACAUGAGGAUCACCCAUGUUGACAUGGAGGAAGGACAGAAGGACGAUGUCCAU` a recorded apparent Kd greater than or equal to 70 nM?
Result: Condition met

Task: Has `CUAUGAACGAUAGGAUAUACUGAGGUUGAGUGGGUAGAAGGAUCGAUAGUGGAGAAGACAUGAGGAUCACCCAUGUUAUGGAUU` a recorded apparent Kd greater than or equal to 70 nM?
Result: Condition met
